tested on: Plasmodium falciparum; experiment: GSK_TCMDC: Inhibition of Plasmodium falciparum 3D7 in whole red blood cells, using parasite LDH activity as an index of growth. Test compounds present at 2uM; assay type: functional
Measure: Inhibition (%)
# value in %; strip the unit string

compound=Cn1nc(-c2ccc(NC(=O)Nc3cc(C(F)(F)F)cc(C(F)(F)F)c3)c(F)c2)c2cnc(NCCN3CCOCC3)nc21.O=C(O)C(F)(F)F system_tested="Plasmodium falciparum" measure=Inhibition recorded_value=94
compound=CN1CCc2cc(O)c(NS(=O)(=O)c3ccc(-c4ccc(Cl)cc4)cc3)cc2CC1.Cl system_tested="Plasmodium falciparum" measure=Inhibition recorded_value=100
compound=Cc1cccc2nc(-c3ccc(-c4ccc(CNCCCNS(C)(=O)=O)cc4)s3)[nH]c12.O=C(O)C(F)(F)F system_tested="Plasmodium falciparum" measure=Inhibition recorded_value=99
compound=Cl.Nc1c2ccccc2nc2cc([N+](=O)[O-])ccc12 system_tested="Plasmodium falciparum" measure=Inhibition recorded_value=98
compound=O=C(Nc1ccsc1)Nc1cccc(-c2ccc(-c3nc4cc(C(F)(F)F)ccc4[nH]3)cc2)c1 system_tested="Plasmodium falciparum" measure=Inhibition recorded_value=99

Fill in reported Inhibition for this entry: NCc1cccc(-c2ccc(CNC3CCN(Cc4ccccc4)CC3)cc2)c1.O=C(O)C(F)(F)F 95

Fill in reported Inhibition for this entry: COc1ccc(F)cc1-c1cccc(CNC2CCN(CC3Cn4c(=O)ccc5ccc(F)c3c54)CC2)c1.O=C(O)C(F)(F)F (stereo not given) 100

Fill in reported Inhibition for this entry: Br.Cc1cccc2c(CON3C(N)=NC(N)=NC3(C)C)cccc12 94

Fill in reported Inhibition for this entry: CCN(CCCN1CCCCC1)c1cc(C)nc(Nc2ccc(C(F)(F)F)cc2)n1.O=C(O)C(F)(F)F 100
